Give measured IC50 for each item. Keep answers brief.
tested on: MCF7; experiment: Antiproliferative activity against human MCF7 cells after 72 hrs by MTT assay; format: functional, cell-based; conditions: MCF7, 72 h
Answers are plain numbers, in µM.

Worked set:
>>> df
                                   compound  unit_text  data_value
0  CCn1cc(C(CC)(CC)c2ccc(C#CC(O)(CC)CC)c(C)c2)cc1C(=O)N[C@@H](C)CO         µM        1.91
1  CCn1c(C(=O)NCC(=O)O)ccc1C(CC)(CC)c1ccc(C#CC(O)(CC)CC)c(C)c1         µM        5.14
2  CCN(CC)CCNC(=O)c1ccc(C(CC)(CC)c2ccc(OCC(O)C(C)(C)C)c(C)c2)n1CC (centres undefined)         µM        1.37
3  CCn1cc(C(CC)(CC)c2ccc(C#CC(O)(CC)CC)c(C)c2)cc1C(=O)NCCC(=O)O         µM        30.6
4  CCn1cc(C(CC)(CC)c2ccc(C#CC(O)(CC)CC)c(C)c2)cc1C(=O)N[C@H](C(=O)O)C(C)C         µM        12.6

Record summary for CCn1cc(C(CC)(CC)c2ccc(C#CC(O)(CC)CC)c(C)c2)cc1C(=O)NCC(=O)O : reported IC50 = 17.5

###

test system: MCF7; experiment: Antiproliferative activity against human MCF7 cells after 72 hrs by MTT assay; type: functional, cell-based; conditions: MCF7, 72 h
recorded_metric: IC50 (µM)
Answers are plain numbers, in µM.

>>> df
                                 cpd_smiles  data_value
0  CCN(CC)CCNC(=O)c1ccc(C(CC)(CC)c2ccc(C#CC(O)(CC)CC)c(C)c2)n1CC        3.77
1  CCn1cc(C(CC)(CC)c2ccc(C#CC(O)(CC)CC)c(C)c2)cc1C(=O)OCCO        1.88
2  CCN(CC)CCNC(=O)c1cc(C(CC)(CC)c2ccc(C#CC(O)(CC)CC)c(C)c2)cn1CC         1.8
3  CCn1cc(C(CC)(CC)c2ccc(C#CC(O)(CC)CC)c(C)c2)cc1C(=O)NCCCN(C)C        20.2
4  CCn1cc(C(CC)(CC)c2ccc(C#CC(O)(CC)CC)c(C)c2)cc1C(=O)N[C@@H](C(=O)O)C(C)C          18
5  CCn1c(C(=O)N[C@H](C(=O)O)C(C)C)ccc1C(CC)(CC)c1ccc(C#CC(O)(CC)CC)c(C)c1          13
6  CCN(CC)CCCNC(=O)c1ccc(C(CC)(CC)c2ccc(C#CC(O)(CC)CC)c(C)c2)n1CC        17.8
7  CCn1c(C(=O)NCCCO)ccc1C(CC)(CC)c1ccc(C#CC(O)(CC)CC)c(C)c1        5.95

Record IC50 per entry; entries follow.
1. CCn1cc(C(CC)(CC)c2ccc(C#CC(O)(CC)CC)c(C)c2)cc1C(=O)NCCN(C)C
2. CCn1cc(C(CC)(CC)c2ccc(C#CC(O)(CC)CC)c(C)c2)cc1C(=O)NCC(=O)OC

Result:
1. 13.4
2. 26.5

###

assay: Selectivity index, ratio of IC50 for human L02 cells to IC50 for human MCF7 cells; format: functional
recorded_metric: Ratio IC50
Answers are plain numbers.

Record Ratio IC50 per entry; entries follow.
1. CCN(CC)CCNC(=O)c1ccc(C(CC)(CC)c2ccc(C#CC(O)(CC)CC)c(C)c2)n1CC
2. CCN(CC)CCNC(=O)c1ccc(C(CC)(CC)c2ccc(OCC(O)C(C)(C)C)c(C)c2)n1CC (centres undefined)

Result:
1. 5.4
2. 15.5

Record Ratio IC50 per entry; entries follow.
1. CCN(CC)CCNC(=O)c1cc(C(CC)(CC)c2ccc(C#CC(O)(CC)CC)c(C)c2)cn1CC
2. CCn1cc(C(CC)(CC)c2ccc(C#CC(O)(CC)CC)c(C)c2)cc1C(=O)N[C@@H](C)CO

Result:
1: 23.4; 2: 18.5

###

target: Vitamin D3 receptor (Homo sapiens) (UniProt P11473); assay: Inhibition of Fluormone VDR Red binding to human VDR LBD expressed in insect cells assessed as binding ability at 1 uM by fluorescence polarization assay relative to 1,25(OH)2D3; design: scale not given: the % may be the effect or the level left
Sequence (P11473 whole entry, the tested form may be a part): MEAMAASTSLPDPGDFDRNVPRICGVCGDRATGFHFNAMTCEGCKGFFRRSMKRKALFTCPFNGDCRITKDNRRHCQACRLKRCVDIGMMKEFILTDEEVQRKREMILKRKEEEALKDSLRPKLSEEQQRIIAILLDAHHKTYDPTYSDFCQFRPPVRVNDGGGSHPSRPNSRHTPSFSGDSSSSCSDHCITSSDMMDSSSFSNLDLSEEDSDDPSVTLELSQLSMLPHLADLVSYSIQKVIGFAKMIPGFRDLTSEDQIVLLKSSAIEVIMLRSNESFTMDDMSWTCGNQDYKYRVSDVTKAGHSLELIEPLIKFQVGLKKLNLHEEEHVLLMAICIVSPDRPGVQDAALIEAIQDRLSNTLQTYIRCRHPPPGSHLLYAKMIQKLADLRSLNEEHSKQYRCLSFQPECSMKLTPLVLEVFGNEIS
Kindly return Satisfied if reported Activity is no lower than 30%; return Not satisfied if it is lower.

Example results:
>>> print(df.to_string())
                                 cpd_smiles   answer_label
0  CCn1c(C(=O)NCc2ccc(OC)cc2)ccc1C(CC)(CC)c1ccc(C#CC(O)(CC)CC)c(C)c1  Not satisfied
1  CCN(CC)CCNC(=O)c1ccc(C(CC)(CC)c2ccc(C#CC(O)(CC)CC)c(C)c2)n1CC      Satisfied
2  CCn1c(C(=O)NCCC(=O)O)ccc1C(CC)(CC)c1ccc(C#CC(O)(CC)CC)c(C)c1  Not satisfied
3  CCN(CC)CCNC(=O)c1cc(C(CC)(CC)c2ccc(C#CC(O)(CC)CC)c(C)c2)cn1CC      Satisfied
4  CCN(CC)CCCNC(=O)c1ccc(C(CC)(CC)c2ccc(C#CC(O)(CC)CC)c(C)c2)n1CC  Not satisfied

# evaluate next
Q: Answer whether Activity of CCn1cc(C(CC)(CC)c2ccc(C#CC(O)(CC)CC)c(C)c2)cc1C(=O)N[C@@H](C)CO is greater than or equal to 30%.
Result: Not satisfied

###

molecular target: Vitamin D3 receptor (Homo sapiens); assay: Inhibition of Fluormone VDR Red binding to human VDR LBD expressed in insect cells assessed as binding ability at 1 uM by fluorescence polarization assay relative to 1,25(OH)2D3; set-up: scale not given: the % may be the effect or the level left
Give measured Activity for each item. Keep answers brief.
Give bare numbers, in %.

>>> print(df.to_string())
                                   molecule  recorded_metric  data_value
0  CCn1cc(C(CC)(CC)c2ccc(C#CC(O)(CC)CC)c(C)c2)cc1C(=O)NCCC(=O)O         Activity         4.3

Record Activity per entry; entries follow.
1. CCn1cc(C(CC)(CC)c2ccc(C#CC(O)(CC)CC)c(C)c2)cc1C(=O)OCCO
2. CCN(CC)CCNC(=O)c1ccc(C(CC)(CC)c2ccc(OCC(O)C(C)(C)C)c(C)c2)n1CC (stereo not drawn)
3. CCn1cc(C(CC)(CC)c2ccc(C#CC(O)(CC)CC)c(C)c2)cc1C(=O)N[C@@H](C(=O)O)C(C)C
4. CCn1cc(C(CC)(CC)c2ccc(C#CC(O)(CC)CC)c(C)c2)cc1C(=O)NCCN(C)C

Result:
1: 29.7; 2: 25.5; 3: 5.9; 4: 55.3

###

system: MCF7; experiment: Antiproliferative activity against human MCF7 cells after 72 hrs by MTT assay; assay type: functional, cell-based; settings: MCF7, 72 h
Give measured IC50 for each item. Keep answers brief.

Record IC50 per entry; entries follow.
1. C#CCCOC(=O)c1ccc(C(CC)(CC)c2ccc(C#CC(O)(CC)CC)c(C)c2)n1CC
2. CCn1c(C(=O)NCCC(=O)O)ccc1C(CC)(CC)c1ccc(C#CC(O)(CC)CC)c(C)c1
3. CCn1c(C(=O)NCCC(=O)OC)ccc1C(CC)(CC)c1ccc(C#CC(O)(CC)CC)c(C)c1

Result:
1: > 50 µM; 2: > 50 µM; 3: > 50 µM

###

molecular target: Vitamin D3 receptor (Homo sapiens); assay: Inhibition of Fluormone VDR Red binding to human VDR LBD expressed in insect cells assessed as binding ability at 1 uM by fluorescence polarization assay relative to 1,25(OH)2D3; design: scale not given: the % may be the effect or the level left
recorded_metric: Activity (%)
Answers are plain numbers, in %.

>>> df
                                 cpd_smiles  recorded_metric  data_value
0  CCn1c(C(=O)NCC(=O)O)ccc1C(CC)(CC)c1ccc(C#CC(O)(CC)CC)c(C)c1         Activity        55.4
1  CCn1cc(C(CC)(CC)c2ccc(C#CC(O)(CC)CC)c(C)c2)cc1C(=O)NCCCN(C)C         Activity        31.6

Record summary for CCn1cc(C(CC)(CC)c2ccc(C#CC(O)(CC)CC)c(C)c2)cc1C(=O)NCC(=O)O : reported Activity = 14.6

###

target: Vitamin D3 receptor (Homo sapiens) (UniProt P11473); test: Inhibition of Fluormone VDR Red binding to human VDR LBD expressed in insect cells assessed as binding ability at 1 uM by fluorescence polarization assay relative to 1,25(OH)2D3; design: scale not given: the % may be the effect or the level left
recorded_metric: Activity (%)
Give bare numbers, in %.

                                 cpd_smiles                              study_target  recorded_metric  unit_text  data_value
0  CCn1c(C(=O)NCCCO)ccc1C(CC)(CC)c1ccc(C#CC(O)(CC)CC)c(C)c1  Vitamin D3 receptor (Homo sapiens) (UniProt P11473)         Activity          %        59.7
1  CCn1cc(C(CC)(CC)c2ccc(C#CC(O)(CC)CC)c(C)c2)cc1C(=O)N[C@H](C(=O)O)C(C)C  Vitamin D3 receptor (Homo sapiens) (UniProt P11473)         Activity          %          20

Record summary for CCn1c(C(=O)N[C@H](C(=O)O)C(C)C)ccc1C(CC)(CC)c1ccc(C#CC(O)(CC)CC)c(C)c1 : reported Activity = 5.9
